Target desc: GLP-1R (Homo sapiens)
Sequence (P43220 24-463): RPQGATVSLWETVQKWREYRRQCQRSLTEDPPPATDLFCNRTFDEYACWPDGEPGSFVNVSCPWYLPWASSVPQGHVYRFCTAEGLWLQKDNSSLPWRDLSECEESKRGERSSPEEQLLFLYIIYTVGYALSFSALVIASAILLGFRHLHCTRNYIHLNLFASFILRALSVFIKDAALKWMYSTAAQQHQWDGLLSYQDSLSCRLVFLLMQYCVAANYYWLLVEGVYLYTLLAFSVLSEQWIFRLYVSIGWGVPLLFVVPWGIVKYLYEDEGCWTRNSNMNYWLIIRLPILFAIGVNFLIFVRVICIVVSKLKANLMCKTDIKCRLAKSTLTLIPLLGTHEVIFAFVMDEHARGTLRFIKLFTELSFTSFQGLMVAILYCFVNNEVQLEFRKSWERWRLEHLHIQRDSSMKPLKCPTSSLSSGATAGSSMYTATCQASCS
Protocol description: GLP-1R Activation - cAMP Assay
Type: cell-based
Condition: cAMP increase in CHO cells stably expressing GLP-1R; each compound run on one of the two cAMP assays (Assay 1 or Assay 2, not specified)
Hi there, I'd appreciate the recorded EC50 for every entry that follows.
Response body: numeric value in nM, unit text excluded.

QUERY: Quick check: EC50 of CC1(C)COC[C@@H]1n1c(Cc2cc(F)c(-c3cccc(OCc4ccc(C(F)F)cc4F)n3)cc2F)nc2c(F)cc(C(=O)O)cc21 (single isomer, unassigned) [Example 502B] ?
RESULT: 0.939

QUERY: Recorded EC50 of CC12CC(n3c(Cc4cc(F)c(-c5cccc(OCc6ccc(C#N)cc6F)n5)cc4F)nc4ccc(C(=O)O)cc43)(CO1)C2 (racemic) [Example 270] , please.
RESULT: 6090

QUERY: So what's the measured EC50 for this one? N#Cc1ccc(COc2cccc(-c3cc(F)c(Cc4nc5ccc(C(=O)O)cc5n4[C@H]4CO[C@H]5OCC[C@H]54)cc3F)n2)c(F)c1 [Example 20]
RESULT: 0.35

QUERY: Using the record for CC1(C)COCC1n1c(Cc2ccc(-c3cccc(OCc4ccc(C#N)cc4F)n3)cc2F)nc2ccc(C(=O)O)cc21 (stereo not drawn) [Example 384] , report its EC50.
RESULT: 0.205

QUERY: What value of EC50 has been recorded for this entry: CC1(C)COC[C@H]1n1c(Cc2cc(F)c(-c3ccc(Cl)c(OCc4ccc(Cl)cc4)n3)cc2F)nc2ccc(C(=O)O)cc21 [Example 433]
RESULT: 0.209

QUERY: Request the reported EC50 associated with N#Cc1ccc(COc2cccc(-c3cc(F)c(Cc4nc5ccc(C(=O)O)cc5n4C4CCOCC45CC5)cc3F)n2)c(F)c1 (stereo not drawn) [Example 82]
RESULT: 1.6
